Values were extracted from a collection of fitness landscapes (doi:10.1126/science.1257360).

I'd appreciate it if you could supply enrichment ratio values for the items below.
B1: PhoQ; a variant is named by its letters at X, in order, P23837 (parent)
chain: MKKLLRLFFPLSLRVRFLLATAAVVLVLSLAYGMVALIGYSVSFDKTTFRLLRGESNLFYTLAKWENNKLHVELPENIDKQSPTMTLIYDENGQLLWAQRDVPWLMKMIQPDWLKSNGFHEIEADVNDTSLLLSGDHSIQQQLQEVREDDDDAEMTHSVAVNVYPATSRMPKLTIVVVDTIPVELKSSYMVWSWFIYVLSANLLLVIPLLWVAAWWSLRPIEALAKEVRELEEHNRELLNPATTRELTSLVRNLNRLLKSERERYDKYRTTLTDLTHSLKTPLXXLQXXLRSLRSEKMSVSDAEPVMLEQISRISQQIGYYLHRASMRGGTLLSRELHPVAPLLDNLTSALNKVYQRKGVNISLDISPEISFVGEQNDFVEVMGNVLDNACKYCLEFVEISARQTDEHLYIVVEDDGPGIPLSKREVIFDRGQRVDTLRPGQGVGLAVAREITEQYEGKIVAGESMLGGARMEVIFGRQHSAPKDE

# Variants of: B1
# Measurement Notes: enrichment ratio after two sorts for PhoP signalling (ratio (wild type AVST 3.29)); higher = more functional
# Particulars: with PhoP (E. coli)
The full ranking holds about 140,000 sequences; the median of “enrichment ratio after two sorts for PhoP signalling” is about 0, and the highest 2% start at about 11. The list comes from a sample in which the highest values are over-represented; it also holds close analogues and randomly drawn sequences.

// Input: FQWE . Output its enrichment ratio only.
1.71

// Input: SKPM . Output its enrichment ratio only.
≤ 0.25

// Input: HKSM . Output its enrichment ratio only.
≤ 0.25

// Input: AAVN . Output its enrichment ratio only.
≤ 0.25

// Input: DQAF . Output its enrichment ratio only.
≤ 0.25

// Input: IQAV . Output its enrichment ratio only.
≤ 0.25

// Input: PVLM . Output its enrichment ratio only.
≤ 0.25

// Input: NDKA . Output its enrichment ratio only.
≤ 0.25

// Input: DCLL . Output its enrichment ratio only.
≤ 0.25

// Input: FTCL . Output its enrichment ratio only.
9.73

// Input: LFMF . Output its enrichment ratio only.
≤ 0.25

// Input: VCLL . Output its enrichment ratio only.
6.51
